These measurements were taken from ChEMBL document CHEMBL3085676.

tested on: Escherichia coli; assay: Antibacterial activity against Escherichia coli NCIM 2065 after 18 to 20 hrs by broth dilution assay; type: functional
property-label: MIC (µg/mL)

(I) CCCCCCCC(=O)N[C@H](/C=C/C(=O)N[C@@H](CCCCN)C(=O)N[C@H](/C=C/C(=O)N[C@@H](CCCCN)C(N)=O)Cc1ccccc1)Cc1ccccc1
(II) CCCCCCCC(=O)N[C@H](/C=C/C(=O)N[C@@H](CCCCN)C(=O)N[C@H](/C=C/C(=O)N[C@@H](CCCCN)C(N)=O)C(C)C)CC(C)C
Hello, I am sorting some records. Could you say if I or II has the smaller MIC value? Answer = label.
I
